# testProtocol: Single-dose (Day 1) pharmacokinetics of Compound tablets, first-time-in-human study
# conditionDetails: human, plasma, po, 2.5 mg, AUC (0-24), single dose Day 1, oral tablets, fasting, 2.5 mg, mean (CV %) and range
endpointLabel: AUC(0-t)

# AUC(0-t) (compound: CC(=O)Nc1cccc(-n2c(=O)n(C3CC3)c(=O)c3c(Nc4ccc(I)cc4F)n(C)c(=O)c(C)c32)c1 [Compound] ) is 47.3 to 95.9 ng·h/mL

* * *

# testProtocol: Single-dose (Day 1) pharmacokinetics of Compound tablets, first-time-in-human study
# conditionDetails: human, plasma, po, 10 mg, AUC (0-24), Day 1, oral tablets, fasting, 10.0 mg loading dose, mean (CV %) and range
endpointLabel: AUC(0-t)

# AUC(0-t) (compound: CC(=O)Nc1cccc(-n2c(=O)n(C3CC3)c(=O)c3c(Nc4ccc(I)cc4F)n(C)c(=O)c(C)c32)c1 [Compound] ) is 0.773 to 0.979 µg·h/mL
